Attribution: PubChem BioAssay (EPA / NIEHS)

read-out: Heat shock 70 kDa protein 1 (HSPA1A), gene 3303; test: LTEA_HepaRG_HSPA1A: Life Technologies and Expression Analysis (LTEA) Assay for Heat shock 70 kDa protein 1 (HSPA1A) using HepaRG (AID 2283502); details: mRNA level, 48 h; actives raise or lower the signal
Activity calls are given as the source filed them. The calls were made as follows: active = hit-call score of the fitted dose curve at least 0.9, where 1 is the maximum; inactive = score below 0.9.
Can you answer with just one of these options? active, inactive

{"compound": "CC(C)NCC(O)c1ccc(O)c(O)c1 (configuration not stated)", "label": "active"}
{"compound": "CC(COCC(C)OC(=O)c1ccccc1)OC(=O)c1ccccc1 (configuration not stated)", "label": "inactive"}
{"compound": "CCCCCCCC(=O)OC", "label": "inactive"}
{"compound": "NC1CCCCC1", "label": "inactive"}
{"compound": "OCC(CO)n1cnc(-c2ccc(F)cc2)c1-c1ccnc(Oc2ccccc2)n1", "label": "active"}

Exercise: // return assay outcome for CC(C)OC(=O)C(C)(C)Oc1ccc(C(=O)c2ccc(Cl)cc2)cc1
Solution: inactive

* * *

molecular target: CCAAT/enhancer-binding protein beta (Homo sapiens); experiment: ATG_C_EBP_CIS: Attagene CIS-FACTORIAL HepG2 Assay for human CCAAT/Enhancer Binding Protein (C/EBP) beta (AID 2282927); conditions: HepG2 Attagene cis-factorial transcription factor reporter; actives raise or lower the signal
Activity calls are given as the source filed them. The calls were made as follows: active = hit-call score of the fitted dose curve at least 0.9, where 1 is the maximum; inactive = score below 0.9.
# output must be one of true (1) = active, false (0) = inactive

Worked set:
{"compound": "Cc1cc(Cc2ccc(N)c(C)c2)ccc1N", "label": "false (0)"}
{"compound": "CCCCCCCCCCCCCCCCO", "label": "false (0)"}
{"compound": "CC(C)c1cccc(C(C)C)c1NC(=O)NS(=O)(=O)c1cc(C(C)(C)O)co1", "label": "false (0)"}
{"compound": "CS(=O)(=O)c1ccc([C@@H](C[C@H]2CCC(=O)C2)C(=O)Nc2cnccn2)cc1Cl", "label": "false (0)"}
{"compound": "CN(C)C(=O)NC1(c2ccccc2)CCN(CCC[C@]2(c3ccc(Cl)c(Cl)c3)CCCN(C(=O)c3ccccc3)C2)CC1", "label": "true (1)"}

Exercise: Name the outcome recorded for CC(=O)S[C@H](C(=O)N[C@H]1Cc2ccccc2[C@H]2CCC[C@@H](C(=O)O)N2C1=O)C(C)C in the assay.
Solution: false (0)

Exercise: CC(N)=O , same question.
Solution: false (0)

Exercise: Similarly, CN(C)CCCN1c2ccccc2Sc2ccc(Cl)cc21 ?
Solution: false (0)

Exercise: What about S=c1[nH]c2ccccc2s1 ?
Solution: false (0)

Exercise: Do the same for Cc1ccc(C(C)(C)C)c(O)c1 please
Solution: false (0)

Exercise: Request: C/C=C/C=C/C(=O)O
Solution: false (0)

Exercise: Next entry: COc1ccc(OC(F)(F)F)cc1CN[C@H]1CCCN[C@H]1c1ccccc1
Solution: false (0)

Exercise: Try the compound CCCCCCC(CCCCCCCCCCC(=O)OCC(COC(C)=O)OC(C)=O)OC(C)=O (stereo not given)
Solution: false (0)

* * *

experiment: Tanguay_ZF_120hpf_YSE_legacy: (Legacy) Oregon State University Tanguay Lab 120 Hour Post-fertilization zebrafish Assay for Yolk Sac Edema (AID 2283634)
Inconclusive results are not listed. Activity calls are given as the source filed them. Rule for the calls: active = hit-call score of the fitted dose curve at least 0.9, where 1 is the maximum; inconclusive = response in the unintended direction; inactive = score below 0.9.
experimental.endpoint: outcome

Consider the worked cases shown below.
{"molecular.string": "CN(C)C(=O)NC1(c2ccccc2)CCN(CCC[C@]2(c3ccc(Cl)c(Cl)c3)CCCN(C(=O)c3ccccc3)C2)CC1", "outcome": "inactive"}
{"molecular.string": "NC=O", "outcome": "inactive"}
{"molecular.string": "Oc1ccccc1O", "outcome": "inactive"}
{"molecular.string": "Cc1cc(Cc2ccc(N)c(C)c2)ccc1N", "outcome": "inactive"}
{"molecular.string": "O=C1c2c(O)cccc2Cc2cccc(O)c21", "outcome": "inactive"}
{"molecular.string": "Nc1nc(Cl)nc2c1ncn2[C@H]1C[C@H](O)[C@@H](CO)O1", "outcome": "inactive"}

Exercise: Could you share which outcome value was measured for NC(=Nc1ccccc1)Nc1ccccc1 ?
Solution: inactive

Exercise: Same question, CCCCOC(=O)CCCCC(=O)OCCCC this time
Solution: inactive

Exercise: Then this compound: CCCCCCCC(=O)OC
Solution: inactive

Exercise: And the next one, O=[Si]=O ?
Solution: inactive

Exercise: What do you have for CC(C)(C)c1ccccc1 ?
Solution: inactive

Exercise: # iterate: Cc1ccc(C(C)(C)C)c(O)c1
Solution: inactive

Exercise: Also need CN(C)CCCN1c2ccccc2Sc2ccc(Cl)cc21 , thanks.
Solution: inactive

Exercise: Proceed to CC1(C)C(=O)NC(=O)N1CO
Solution: inactive
